Source: patent US20240425589A1

# target: T1, recombinant human CD137 (Homo sapiens, UniProt Q07011)
# T1 construct: made in house; host or cells: FreeStyle293F
# T1 sequence (Q07011 with tags, fused parts or gaps): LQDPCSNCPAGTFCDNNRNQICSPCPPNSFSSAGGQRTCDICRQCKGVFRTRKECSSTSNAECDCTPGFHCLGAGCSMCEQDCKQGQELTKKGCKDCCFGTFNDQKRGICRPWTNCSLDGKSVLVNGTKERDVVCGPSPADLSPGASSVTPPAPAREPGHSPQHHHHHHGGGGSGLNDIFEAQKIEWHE
# protocol.details: Biacore T200 SPR affinity of Dual-Fab antibodies to human CD137
# Format: binding
# test.parameters: 37 degrees C, pH 7.4
# Protocol: Human CD137 extracellular domain (ECD) (SEQ ID NO: 179) with hexahistidine (His-tag) and biotin acceptor peptide (BAP) on its C-terminus was expressed transiently using FreeStyle293F cell line (Thermo Fisher). Conditioned media expressing human CD137 ECD was applied to a HisTrap HP column (GE healthcare) and eluted with buffer containing imidazole (Nacalai). […] Binding affinity of Dual-Fab antibodies (Dual-Ig) to human CD3 were assessed at 25 degrees C. using Biacore T200 instrument (GE Healthcare). […]
Form field: CD137 Kon (one value per entry).
The figure you give is taken to be in M⁻¹ s⁻¹; do not add the unit.

# annotated cases, reported CD137 Kon shown
molecule | result.number
H0868L0581: affinity matured Dual-Fab variant, VH SEQ ID NO 91, VL SEQ ID NO 143 (antibody, V domains shown) VH: QVQLVESGGGLVQPGRSLRLSCAASGFKFSNVWMHWVRQAPGKGLEWVAQIKDKYNAYAAYYAPSVKGRFTISRDDSKNSIYLQMNSLKTEDTAVYYCHYVHYASASTLLPAFGVDAWGQGTTVTVSS VL: DIVMTQSPLSLPVTPGEPASISCQPSQEVVHMNRNTYLHWYQQKPGQAPRLLIYKVSNRFPGVPDRFSGSGSGTDFTLKISRVEAEDVGVYYCAQGTSHPFTFGQGTKLEIK | 12200
H1610L0939: affinity matured Dual-Fab variant, VH SEQ ID NO 94, VL SEQ ID NO 145 (antibody, V domains shown) VH: QVQLVESGGGLVQPGRSLRLSCAASGFVFSNVWMHWVRQAPGKGLEWVAQIKDKWNAYAAYYAPSVKGRFTISRDDSKNSIYLQMNSLKTEDTAVYYCHYIHYASASTLLPAEGIDAWGQGTTVTVSS VL: DIVMTQSPLSLPVTPGEPASISCQPSQEVVHMNRNTYLHWYQQKPGQAPRLLIYKVSNVFPGVPDRFSGSGSGTDFTLKISRVEAEDVGVYYCAQGTHHPFTFGQGTKLEIK | 13000
H1643L0581: affinity matured Dual-Fab variant, VH SEQ ID NO 95, VL SEQ ID NO 143 (antibody, V domains shown) VH: QVQLVESGGGLVQPGRSLRLSCAASGFKFSNVWFHWVRQAPGKGLEWVAQIKDYYNAYAAYYAPSVKGRFTISRDDSKNSIYLQMNSLKTEDTAVYYCHYVHYASASTLLPAEGVDAWGQGTTVTVSS VL: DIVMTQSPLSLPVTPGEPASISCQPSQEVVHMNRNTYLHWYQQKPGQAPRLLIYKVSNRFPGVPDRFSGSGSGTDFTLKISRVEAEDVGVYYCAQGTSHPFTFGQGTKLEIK | 12300
H1652L0943: affinity matured Dual-Fab variant, VH SEQ ID NO 99, VL SEQ ID NO 146 (antibody, V domains shown) VH: QVQLVESGGGLVQPGRSLRLSCAASGFVFSNVWFHWVRQAPGKGLEWVAQIKDYYNAYADYYAPSVEGRFTISRDDSKNSIYLQMNSLKTEDTAVYYCHYVHYASASTLLPAEGVDAWGQGTTVTVSS VL: DIVMTQSPLSLPVTPGEPASISCQPSEEVVHMNRNTYLHWYQQKPGQAPRLLIYKVSNLFPGVPDRFSGSGSGTDFTLKISRVEAEDVGVYYCAQGTHHPFTFGQGTKLEIK | 12900

Inquiry: Give CD137 Kon for the following molecule: H2591L0581: affinity matured Dual-Fab variant, VH SEQ ID NO 101, VL SEQ ID NO 143 (antibody, V domains shown) VH: QVQLVESGGGLVQPGRSLRLSCAASGFKFSNVWFHWVRQAPGKGLEWVAQIKDYYNAYAGYYHPSVKGRFTISRDDSKNSIYLQMNSLKTEDTAVYYCHYVHYAAASTLLPAEGVDAWGQGTTVTVSS VL: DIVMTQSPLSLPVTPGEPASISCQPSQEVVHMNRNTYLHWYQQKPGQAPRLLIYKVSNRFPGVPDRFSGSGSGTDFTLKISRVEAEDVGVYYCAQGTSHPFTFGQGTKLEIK
Reply text: 20400
